Provide the reported EC50 of each item.
biological target: Bromodomain-containing protein 4 (Homo sapiens); test: Inhibition of BRD4 in human […] cells transfected with HPV-E2 assessed as transrepression of HPV-long control region by luciferase reporter assay

Q: Give its EC50 value. Item: Cc1sc2c(c1C)C(c1ccc(Cl)cc1)=N[C@@H](CC(=O)NCCOCCOCCNC(=O)CS(=O)(=O)O)c1nnc(C)n1-2
Ans: > 10 µM

Q: Give its EC50 value. Item: Cc1sc2c(c1C)C(c1ccc(Cl)cc1)=N[C@@H](CC(=O)NCCOCCOCCNC(=O)CCCCCC1(C)C(/C=C/C=C/C=C3/N(CCCS(=O)(=O)O)c4ccc(S(=O)(=O)O)cc4C3(C)C)=[N+](CCCS(=O)(=O)[O-])c3ccc(S(=O)(=O)O)cc31)c1nnc(C)n1-2 (stereo partly drawn)
Ans: > 10 µM

Q: Give its EC50 value. Item: Cc1sc2c(c1C)C(c1ccc(Cl)cc1)=N[C@@H](CC(=O)NCCOCCOCCNC(=O)C1C(C(=O)O)C(C(=O)O)C1C(=O)O)c1nnc(C)n1-2 (stereo partly drawn)
Ans: > 10 µM

----------
Provide the reported pIC50 of each item.
target: 5-hydroxytryptamine receptor 1A (Homo sapiens, UniProt P08908); test: Antagonist activity at human 5HT1A expressed in BAF3 cells by fluorimetry analysis
Sequence (P08908 whole entry): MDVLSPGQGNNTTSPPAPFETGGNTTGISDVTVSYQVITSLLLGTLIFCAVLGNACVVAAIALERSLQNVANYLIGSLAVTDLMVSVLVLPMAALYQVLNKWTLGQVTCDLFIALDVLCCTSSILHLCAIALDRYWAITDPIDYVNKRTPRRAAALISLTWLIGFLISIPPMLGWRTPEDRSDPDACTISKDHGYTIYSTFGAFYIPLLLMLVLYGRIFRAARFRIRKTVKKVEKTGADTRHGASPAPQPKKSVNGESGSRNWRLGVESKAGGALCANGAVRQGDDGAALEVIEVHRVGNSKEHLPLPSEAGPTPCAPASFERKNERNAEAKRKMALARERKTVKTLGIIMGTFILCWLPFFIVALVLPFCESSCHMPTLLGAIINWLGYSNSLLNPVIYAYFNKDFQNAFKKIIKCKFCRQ
A value of pIC50 is the negative decimal logarithm of a concentration given in moles per litre.

Q: Request body: readout pIC50, system 5-hydroxytryptamine receptor 1A (Homo sapiens, UniProt P08908), query CC(C)NCC(O)COc1ccccc1CCCSCC(=O)NCCOCCOCCNC(=O)OC(C)(C)C (stereo not drawn) . Return the value.
Ans: 6.19

Q: Request body: readout pIC50, system 5-hydroxytryptamine receptor 1A (Homo sapiens, UniProt P08908), query COC(=O)CSCCCc1ccccc1OCC(O)CNC(C)C (stereo not drawn) . Return the value.
Ans: 5.54

Q: Request body: readout pIC50, system 5-hydroxytryptamine receptor 1A (Homo sapiens, UniProt P08908), query C=CCc1ccccc1OCC(O)CNC(C)C (stereo not drawn) . Return the value.
Ans: 6.20

Hello, the source for this data is ChEMBL document CHEMBL4311931, in case you need it.
